system: crop plants, such as corn and sugar beet; test: Pre-emergence test (crop plant tolerance); type: in vivo; settings: some crop plants, e.g. corn and sugar beet, rated after three weeks

MOLECULE: Cn1c(C(F)(F)F)cc(=O)n(-c2cc(-n3ccc(C=O)c3)c(C#N)cc2F)c1=O
tolerance by crop plants: tolerated well

MOLECULE: Cn1c(C(F)(F)F)cc(=O)n(-c2cc(N3C(=O)C4CCCCN4C3=O)c(C#N)cc2F)c1=O (stereo not drawn)
tolerance by crop plants: tolerated well

MOLECULE: Cn1c(C(F)(F)F)cc(=O)n(-c2cc(N3CCC(O)CC3)c(C#N)cc2F)c1=O
tolerance by crop plants: tolerated well

---

test system: crop plants, such as corn and sugar beet; assay: Pre-emergence test (crop plant tolerance); format: in vivo; details: some crop plants, e.g. corn and sugar beet, rated after three weeks
ENDPOINT LABEL: tolerance by crop plants

COMPOUND: Cn1c(C(F)(F)F)cc(=O)n(-c2cc(N3CCC(O)C3)c(C#N)cc2F)c1=O (centres unmarked)
TEST TARGET: crop plants, such as corn and sugar beet
tolerance by crop plants: tolerated well
//
COMPOUND: CCOC(=O)C1CCN(c2cc(-n3c(=O)cc(C(F)(F)F)n(N)c3=O)c(F)cc2C#N)CC1
TEST TARGET: crop plants, such as corn and sugar beet
tolerance by crop plants: tolerated well
//
COMPOUND: CCOC(=O)C1CCCN(c2cc(-n3c(=O)cc(C(F)(F)F)[nH]c3=O)c(F)cc2C#N)C1 (centres unmarked)
TEST TARGET: crop plants, such as corn and sugar beet
tolerance by crop plants: tolerated well
//
COMPOUND: Cn1c(C(F)(F)F)cc(=O)n(-c2cc(N3C(=O)CN(C4CC4)C3=O)c(C#N)cc2F)c1=O
TEST TARGET: crop plants, such as corn and sugar beet
tolerance by crop plants: tolerated well
//
COMPOUND: Cc1ccc(C)n1-c1cc(-n2c(=O)cc(C(F)(F)F)n(C)c2=O)c(F)cc1C#N
TEST TARGET: crop plants, such as corn and sugar beet
tolerance by crop plants: tolerated well
//
COMPOUND: CCOC(=O)C1CCN(c2cc(-n3c(=O)cc(C(F)(F)F)n(C)c3=O)c(F)cc2C#N)CC1
TEST TARGET: crop plants, such as corn and sugar beet
tolerance by crop plants: tolerated well

Endpoint output: tolerance by crop plants of `Cn1c(C(F)(F)F)cc(=O)n(-c2cc(-n3cccc3)c(C#N)cc2F)c1=O` . Value?
tolerated well

Consider next the compound `COC(=O)C1CCN(c2cc(-n3c(=O)cc(C(F)(F)F)n(C)c3=O)c(F)cc2C#N)CC1` in the same way.
tolerated well

---

experiment: log P determination by HPLC (EEC directive 79/831 Annex V.A8, reverse-phase C 18); details: reverse-phase C18 HPLC column, pH 2.3
Measured chromatographic logP by item
The answer should be written as a number, with no unit following it.

COMPOUND STRUCTURE STRING: Cn1c(C(F)(F)F)cc(=O)n(-c2cc(N3C(=O)CN(C4CC4)C3=O)c(C#N)cc2F)c1=O
chromatographic logP: 2.25

Let us move to another entry and its chromatographic logP.
Endpoint output: chromatographic logP of `CCOC(=O)C1CCN(c2cc(-n3c(=O)cc(C(F)(F)F)n(C)c3=O)c(F)cc2C#N)CC1` . Value?
3.23
